# Tested on: SK-OV-3 ovarian
# procedure-text: NCI tumour cell line growth inhibition, 48 h; in the data active = GI50 below about 0.43 µM; inactive = the rest
Labels: active, inactive

* CCOC(=O)[C@@H](C)C[C@H](Cc1ccccc1)NC(=O)c1csc([C@@H](C[C@H](C(C)C)N(C)C(=O)[C@@H](NC(=O)[C@H]2C[C@H](O)CCN2C)C(C)C)OC(C)=O)n1 | active
* O=c1[nH]c(F)nc2c1ncn2C1OC(CO)C(O)C1O (stereo not drawn) | inactive
* O=C(NS(=O)(=O)c1ccc(NC[C@H]2COCCO2)c([N+](=O)[O-])c1)c1ccc(N2CCN(CC3=C(c4ccc(Cl)cc4)CC4(CCC4)CC3)CC2)cc1Oc1cnc2[nH]ccc2c1 | inactive
* NC(=O)CCc1ccccc1Oc1nccc(-c2c(-c3ccc(F)cc3)ncn2C2CCNCC2)n1 | inactive
* CCOC(=O)Nc1ccc2c(c1)N(C(=O)CCN(CC)CC)c1ccccc1S2 | inactive
* NCCCn1c2c(c3ccc([N+](=O)[O-])cc3c1=O)C(=O)c1cc(F)ccc1-2 | active
* COc1ccc(/C=C/C(=O)c2ccc(Nc3nc(Nc4ccc(F)cc4)nc(Nc4ccc(Cl)cc4)n3)cc2)cc1 | inactive
* COc1cc(/C=C/C(=O)c2ccc(F)cc2)ccc1OCCCCCOc1cc2c(cc1OC)C(=O)N1CCCC1C=N2 (stereo not drawn) | active

Every entry's value here was drawn from PubChem BioAssay (NCI).
